Source listed as ChEMBL document CHEMBL2177079.

Experiment: Oral bioavailability in Han Wistar rat at 7 umol/kg
Format: ADME, organism-based
Details: in vivo
measured.metric: bioavailability (%)
Give bare numbers, in %.

Looking for the measured bioavailability of O=C(N[C@H]1C2CC3CC1C[C@](O)(C3)C2)c1cnc(N[C@H]2CCOC2)nc1C1CCCC1 , can you help? 61

###

Record form. Attribute: bioavailability. Fill in for each entry.
Assay: Oral bioavailability in mouse at 11.7 umol/kg
Format: ADME, organism-based
Conditions: in vivo
Answers are plain numbers, in %.

entry.smiles	observed
O=C(N[C@H]1C2CC3CC1C[C@](O)(C3)C2)c1cnc(N[C@H]2CCOC2)nc1C1CCCC1	34

Now let's try a different one.
Looking for the measured bioavailability of O=C(N[C@H]1C2CC3CC1C[C@](O)(C3)C2)c1cnc(NC2CCOCC2)nc1C1CCC1 , can you help? 57
